// reported folding enthalpy for each item listed
Assay Notes: folding enthalpy; higher = less favourable; fluorescence melt of hairpins on a sequencing array, two-state fit
Test Settings: sodium 0.088 M
# value in kcal/mol; strip the unit string

Guide cases for folding enthalpy, answers given:
Sequence String: GCGTGCGCGAAAGCGCGC (((..(((....))))))
Quantitative Readout: -6.87
--
Sequence String: GTGAGAGGAAACTTTCAC ((((.((....)).))))
Quantitative Readout: -23.8
--
Sequence String: GACAGGGGAAACCCTATC ((.((((....)))).))
Quantitative Readout: -12.8
--
Sequence String: GATCACATTAGTGATC ((((((....))))))
Quantitative Readout: -45
--
Sequence String: GATGTCGGAAACGGCATC ((((.((....)).))))
Quantitative Readout: -46.5
--
Sequence String: GGCCACGAAAGTGATGCC ((((((....)))..)))
Quantitative Readout: -27.6
--
Sequence String: GTAAAAACGAAAGTTTAC (((..(((....))))))
Quantitative Readout: -11.4
--
Sequence String: GACACTGGAAACAGTGCC (.(((((....))))).)
Quantitative Readout: -14.8
--
Sequence String: GAGTTCCCGAAAGGGCTC (((..(((....))))))
Quantitative Readout: -18.3
--
Sequence String: GCTTTGCGAAAGCACTGC ((..(((....)))..))
Quantitative Readout: -17.5

Q: Which folding enthalpy is reported for this sequence? GTCAACGAAAGTTGAGAC ((((((....)))..)))
Ans: -12.2

Q: Which folding enthalpy is reported for this sequence? GGCTCCCGAAAGGGTGCC (((.(((....))).)))
Ans: -40

Q: Which folding enthalpy is reported for this sequence? GATCACGAGCGTGATC ((((((....))))))
Ans: -39.5

* * *

Assay Notes: folding enthalpy; higher = less favourable; fluorescence melt of hairpins on a sequencing array, two-state fit
Test Settings: sodium 0.088 M
// reported folding enthalpy for each item listed
# value in kcal/mol; strip the unit string

Guide cases for folding enthalpy, answers given:
Sequence String: GGCTCCGAAAGGAAAGCC ((((((....)))..)))
folding enthalpy [kcal/mol]: -30.1

Sequence String: AAACTGAAAAGTTT (((((....)))))
folding enthalpy [kcal/mol]: -13.4

Sequence String: GTGCCAGAAATGGCAC ((((((....))))))
folding enthalpy [kcal/mol]: -36.7

Sequence String: GAACCCGAAAGGGCTTC ((((((....))).)))
folding enthalpy [kcal/mol]: -15

Sequence String: GTGCCCGAAAGGGGGCAC ((((((....)))..)))
folding enthalpy [kcal/mol]: -22.2

Q: Which folding enthalpy is reported for this sequence? GATCTGTAATCAGATC ((((((....))))))
Ans: -37.6

Q: Which folding enthalpy is reported for this sequence? GTGGTCGGAAACGGCCAC ((((.((....)).))))
Ans: -33.7

Q: Which folding enthalpy is reported for this sequence? GCGGCTGCGAAAGCACGC (((..(((....))))))
Ans: -16.6

Q: Which folding enthalpy is reported for this sequence? GAAGTGGCGAAAGCCTTC (((..(((....))))))
Ans: -11.4

Q: Which folding enthalpy is reported for this sequence? GACGACGCGAAAGCGGTC (((..(((....))))))
Ans: -11.5

Q: Which folding enthalpy is reported for this sequence? ATGGAGAAATCCAT (((((....)))))
Ans: -14.6

Q: Which folding enthalpy is reported for this sequence? GTACGCGAAAGCGATAC ((((((....))).)))
Ans: -13.9

* * *

Assay Notes: folding enthalpy; higher = less favourable; fluorescence melt of hairpins on a sequencing array, two-state fit
Test Settings: sodium 0.088 M
// reported folding enthalpy for each item listed
# value in kcal/mol; strip the unit string

Sequence String: GGACGCGAAAGCGCTTCC ((((((....)))..)))
Measurement Units: kcal/mol
folding enthalpy: -13.2
--
Sequence String: GGTGCACGAAAGTGGACC (((.(((....))).)))
Measurement Units: kcal/mol
folding enthalpy: -38.1
--
Sequence String: GAAGCACGAAAGTGATTC (((.(((....))).)))
Measurement Units: kcal/mol
folding enthalpy: -35.1
--
Sequence String: GTCATACCGAAAGGTGAC (((..(((....))))))
Measurement Units: kcal/mol
folding enthalpy: -19
--
Sequence String: GGGCGGCGAAAGCCTCCC (((.(((....))).)))
Measurement Units: kcal/mol
folding enthalpy: -21.9

Next, consider the following sequence.
Q: Which folding enthalpy is reported for this sequence? GAGTCACGAAAGTGCCTC (((.(((....))).)))
Ans: -23.5

* * *

Assay Notes: folding enthalpy; higher = less favourable; fluorescence melt of hairpins on a sequencing array, two-state fit
Test Settings: sodium 0.088 M
Readout: folding enthalpy (kcal/mol)
# value in kcal/mol; strip the unit string

Guide cases for folding enthalpy, answers given:
Sequence String: GTGCGCGGAAACGCGTGC (..((((....))))..)
Quantitative Readout: -16.7
--
Sequence String: GCGAGAGATCGC ((((....))))
Quantitative Readout: -17.5
--
Sequence String: GCATTGCGAAAGCCTTGC (((..((....))..)))
Quantitative Readout: -25
--
Sequence String: GATCCTCAGAAGGATC ((((((....))))))
Quantitative Readout: -35.3
--
Sequence String: GCAACCCGAAAGGGTGC (((.(((....))))))
Quantitative Readout: -19.1

Q: Which folding enthalpy is reported for this sequence? GATCCGGGAAACTGGGTC ((.((.(....).)).))
Ans: -30.1

Q: Which folding enthalpy is reported for this sequence? GATCTACAAGTAGATC ((((((....))))))
Ans: -34.2

Q: Which folding enthalpy is reported for this sequence? GATCCGCGAAAGCGTATC (((.(((....))).)))
Ans: -18.4

Q: Which folding enthalpy is reported for this sequence? GATCGACTCATCGATC ((((((....))))))
Ans: -41.7

Q: Which folding enthalpy is reported for this sequence? GATCACTGGTGTGATC ((((((....))))))
Ans: -36.7

Q: Which folding enthalpy is reported for this sequence? GCTGTCCGAAAGGAAGC (((.(((....))))))
Ans: -23.9

Q: Which folding enthalpy is reported for this sequence? GAGCTCGGAAACGGGCTC ((((.((....)).))))
Ans: -44.2

* * *

Assay Notes: folding enthalpy; higher = less favourable; fluorescence melt of hairpins on a sequencing array, two-state fit
Test Settings: sodium 0.088 M
Entry flag: 1 if folding enthalpy reaches -30 kcal/mol; 0 if it does not.

Example entries begin here.
Sequence String: GCGGTTGGAAACAGTCGC (((..((....))..)))
Qualitative Label: 1

Sequence String: GATCGCCGTAGCGATC ((((((....))))))
Qualitative Label: 0

Sequence String: GTGGTTGGAAACGACCAC (((((.(....).)))))
Qualitative Label: 0

Sequence String: GACAGCGAAAGCTAGTC ((((((....))).)))
Qualitative Label: 1

Sequence String: GGGTTCGGAAACGGATCC ((.(.((....)).).))
Qualitative Label: 1

Q: Hello, I need to know if GGCAGACGAAAGTCCGCC (((.(((....))).))) has measured folding enthalpy not below -30 kcal/mol. Thanks!
Ans: 0

* * *

// reported folding enthalpy for each item listed
Assay Notes: folding enthalpy; higher = less favourable; fluorescence melt of hairpins on a sequencing array, two-state fit
Test Settings: sodium 0.088 M
# value in kcal/mol; strip the unit string

Guide cases for folding enthalpy, answers given:
Sequence String: GGGCACGAAAGTGCTCCC ((((((....)))..)))
folding enthalpy / kcal/mol: -9.92
//
Sequence String: GATCAAGAGTTGATC ((((((...))))))
folding enthalpy / kcal/mol: -24.8

Q: Which folding enthalpy is reported for this sequence? GCTAAGCGAAAGCTTCGC ((.((((....)))).))
Ans: -20.9

Q: Which folding enthalpy is reported for this sequence? GACTAGCGAAAGCTCGTC (((.(((....))).)))
Ans: -19.1

Q: Which folding enthalpy is reported for this sequence? GCAGAAGGAAACTTTTGC (((.(((....))).)))
Ans: -31.2

Q: Which folding enthalpy is reported for this sequence? GCATGAGGAAACTCGTGC (((.(((....))).)))
Ans: -47.4

* * *

Assay Notes: melting temperature; fluorescence melt of hairpins on a sequencing array, two-state fit, raised by 9.35 °C to match UV melts
Test Settings: sodium 0.088 M
// reported Tm for each item listed
# value in °C; strip the unit string

Sequence String: GCCTACGAAAGTACCGGC ((((((....)))..)))
Measurement Units: °C
Tm: 36.9
//
Sequence String: GATCAGGCGCTGATC ((((((...))))))
Measurement Units: °C
Tm: 47.9
//
Sequence String: GCATTCCGAAAGGATTGC (((.(((....))).)))
Measurement Units: °C
Tm: 54.4
//
Sequence String: GCGCAGCGAAAGCCGTGC ((.(.((....)).).))
Measurement Units: °C
Tm: 46.2
//
Sequence String: GCTGGTGGAAACACTGGC ((..(((....)))..))
Measurement Units: °C
Tm: 45.9

Next, consider the following sequence.
Q: Which Tm is reported for this sequence? GTCTCCCGAAAGGGGGAC (((.(((....))).)))
Ans: 65.9
